- TEST SYSTEM: Adenosine receptor A2a (Homo sapiens, UniProt P29274)
- Sequence (P29274 whole entry): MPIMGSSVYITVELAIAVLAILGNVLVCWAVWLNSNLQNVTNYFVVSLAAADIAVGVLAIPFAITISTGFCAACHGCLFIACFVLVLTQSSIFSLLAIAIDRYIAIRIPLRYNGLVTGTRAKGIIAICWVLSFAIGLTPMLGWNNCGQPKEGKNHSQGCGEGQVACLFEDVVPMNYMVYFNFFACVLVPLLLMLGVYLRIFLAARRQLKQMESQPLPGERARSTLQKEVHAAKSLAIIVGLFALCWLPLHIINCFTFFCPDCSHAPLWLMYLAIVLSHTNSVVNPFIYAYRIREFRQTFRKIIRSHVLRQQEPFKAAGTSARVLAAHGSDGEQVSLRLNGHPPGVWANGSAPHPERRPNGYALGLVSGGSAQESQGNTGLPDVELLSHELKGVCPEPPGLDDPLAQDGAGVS
- MEASUREMENT DESCRIPTION: Inverse agonist activity at human adenosine A2A receptor expressed in CHO cells assessed as inhibition of cAMP accumulation measured after 150 mins in presence of [3H]cAMP by scintillation counting method
- Type: functional, cell-based
pIC50: −log10 of the molar value.

{"columns": ["CHEMICAL STRING", "pIC50"],
 "data": [
  ["Nc1nc(NCc2ccccc2)nc2sc(-c3ccco3)nc12", 7.54],
  ["Nc1nc(NCCc2ccccc2)nc2sc(-c3ccco3)nc12", 7.46],
  ["COc1ccc(CCNc2nc(N)c3nc(-c4ccco4)sc3n2)cc1", 7.38],
  ["Nc1nc(NCCc2ccc(O)cc2)nc2sc(-c3ccco3)nc12", 7.60]
]}

// provenance: ChEMBL document CHEMBL3877301
